I'd appreciate it if you could supply A549-CRAF BP 100 nM, 2 h values for the items below.
# Tested on: phospho-MEK in A549 cells
# experimental protocol: Cell-based pMEK (pMEK:tMEK, CRAF bypass) in A549 cells
# details: 2 h, pMEK to total MEK normalized to DMSO control

For orientation, consider the following solved cases.
Note down A549-CRAF BP 100 nM, 2 h recorded for CNS(=O)(=O)Nc1cccc(Cc2c(CN(C)c3ccc(Cl)cc3)c3ccc(OC(=O)N(C)C)cc3oc2=O)c1F [Compound 97]
52.1 (mean, n = 2)

Query A549-CRAF BP 100 nM, 2 h for Cc1c(Cc2cccc(NS(=O)(=O)C3CC3)c2F)c(=O)oc2cc(OC(=O)N(C)C)ccc12 [Compound 113]
48.0 (mean, n = 2)

Provide A549-CRAF BP 100 nM, 2 h value for the following compound: Cc1c(Cc2cccc(NS(=O)(=O)C3CCC3)c2F)c(=O)oc2cc(OC(=O)N(C)C)ccc12 [Compound 118]
39.1 (mean, n = 2)

Alright, here's another compound for you.
Read the entry Cc1c(Cc2ccnc(NS(=O)(=O)C(C)C)c2F)c(=O)oc2cc(OC(=O)N(C)C)ccc12 [Compound 114] and write its reported A549-CRAF BP 100 nM, 2 h.
59.9 (mean, n = 3)

###

Please respond with reported IC50 for every item in the list.
# tested target: hERG (Homo sapiens, UniProt Q12809)
# Sequence (Q12809 whole entry): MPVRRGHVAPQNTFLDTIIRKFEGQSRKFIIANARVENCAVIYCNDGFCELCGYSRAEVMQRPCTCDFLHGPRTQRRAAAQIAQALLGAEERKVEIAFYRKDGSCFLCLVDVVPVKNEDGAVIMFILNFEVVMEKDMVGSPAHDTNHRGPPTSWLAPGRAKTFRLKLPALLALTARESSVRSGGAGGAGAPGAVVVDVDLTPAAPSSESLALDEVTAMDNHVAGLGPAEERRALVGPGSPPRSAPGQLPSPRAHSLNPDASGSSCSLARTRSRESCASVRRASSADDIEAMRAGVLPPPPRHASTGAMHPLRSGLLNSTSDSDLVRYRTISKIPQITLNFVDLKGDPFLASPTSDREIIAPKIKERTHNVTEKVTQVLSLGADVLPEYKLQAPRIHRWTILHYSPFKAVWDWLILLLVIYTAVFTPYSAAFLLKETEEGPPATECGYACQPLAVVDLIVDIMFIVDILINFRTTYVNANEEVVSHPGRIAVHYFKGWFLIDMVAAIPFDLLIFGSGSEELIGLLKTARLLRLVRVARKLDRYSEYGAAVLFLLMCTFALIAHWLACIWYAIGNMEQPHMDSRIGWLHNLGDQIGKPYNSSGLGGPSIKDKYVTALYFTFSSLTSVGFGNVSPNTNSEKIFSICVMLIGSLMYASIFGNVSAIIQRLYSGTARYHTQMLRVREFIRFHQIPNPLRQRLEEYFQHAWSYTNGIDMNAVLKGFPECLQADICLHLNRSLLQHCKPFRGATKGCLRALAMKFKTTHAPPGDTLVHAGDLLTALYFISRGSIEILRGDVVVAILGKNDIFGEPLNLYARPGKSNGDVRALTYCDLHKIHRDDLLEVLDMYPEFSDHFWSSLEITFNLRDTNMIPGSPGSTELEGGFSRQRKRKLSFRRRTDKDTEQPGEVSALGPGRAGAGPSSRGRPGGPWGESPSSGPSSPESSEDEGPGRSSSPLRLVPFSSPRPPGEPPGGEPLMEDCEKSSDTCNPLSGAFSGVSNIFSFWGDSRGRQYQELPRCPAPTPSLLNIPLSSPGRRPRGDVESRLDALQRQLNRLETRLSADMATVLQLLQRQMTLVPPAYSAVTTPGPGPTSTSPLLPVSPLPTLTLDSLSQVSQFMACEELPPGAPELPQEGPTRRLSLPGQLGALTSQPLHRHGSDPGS
# experimental protocol: cell-based
Structures can show the parent of a compound that is named as a salt.

Supply recorded IC50 for CNS(=O)(=O)Nc1cccc(Cc2c(CN3CCNCC3)c3cc(F)c(OC(=O)N(C)C)cc3oc2=O)c1Cl [Compound 254] here.
> 30 µM

For the molecule CNS(=O)(=O)Nc1cccc(Cc2c(CN(C)C)c3ccc(OC(=O)N(C)C)cc3oc2=O)c1Cl [Compound 274] , report IC50.
> 30 µM

--- query ---
Identify measured IC50 corresponding to CNS(=O)(=O)Nc1cccc(Cc2c(CN3CCNCC3)c3ccc(OC(=O)N(C)C)cc3oc2=O)c1Cl [Compound 246, hydrochloride]
> 30 µM

###

# tested target: CYP2C9 (Homo sapiens, UniProt P11712)
# Sequence (P11712 whole entry): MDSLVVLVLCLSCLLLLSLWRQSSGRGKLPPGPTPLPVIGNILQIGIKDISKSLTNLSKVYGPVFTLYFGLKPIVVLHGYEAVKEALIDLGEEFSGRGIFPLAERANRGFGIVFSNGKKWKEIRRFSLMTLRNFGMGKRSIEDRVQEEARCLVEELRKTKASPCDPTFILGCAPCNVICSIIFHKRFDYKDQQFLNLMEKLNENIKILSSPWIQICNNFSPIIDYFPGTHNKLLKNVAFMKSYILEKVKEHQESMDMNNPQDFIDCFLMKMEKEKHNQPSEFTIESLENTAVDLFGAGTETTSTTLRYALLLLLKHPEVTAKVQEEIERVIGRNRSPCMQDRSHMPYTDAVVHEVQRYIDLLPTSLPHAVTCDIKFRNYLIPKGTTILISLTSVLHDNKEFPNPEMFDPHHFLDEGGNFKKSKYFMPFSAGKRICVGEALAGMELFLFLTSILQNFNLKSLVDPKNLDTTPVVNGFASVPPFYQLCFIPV
# experimental protocol: CYP450 panel inhibition in human liver microsomes, 2C9 (diclofenac)
# details: human, microsomes, pH 7.4
Structures can show the parent of a compound that is named as a salt.
parameter: inhibition at 30 min, 10 µM (%)
Give bare numbers, in %.

Return inhibition at 30 min, 10 µM (reported value) for this compound: Nc1ccc(S(=O)(=O)Nc2ccnn2-c2ccccc2)cc1 [Sulfaphenazole, reference compound]
95.6

Specify measured inhibition at 30 min, 10 µM for CNS(=O)(=O)Nc1cccc(Cc2c(CN3CCNCC3)c3ccc(OC(=O)N(C)C)cc3oc2=O)c1Cl [Compound 246, hydrochloride] .
19.4

Provide only the value of recorded inhibition at 30 min, 10 µM for CCS(=O)(=O)Nc1cccc(Cc2c(CN3CCNCC3)c3cc(Cl)c(OC(=O)N(C)C)cc3oc2=O)c1Cl [Compound 257, hydrochloride]
53.7

Below are some compounds; for each one, tell me its inhibition at 30 min, 10 µM.
1. CNS(=O)(=O)Nc1cccc(Cc2c(CN3CCNCC3)c3cc(Cl)c(OC(=O)N(C)C)cc3oc2=O)c1Cl [Compound 256, hydrochloride]
2. CNS(=O)(=O)Nc1cccc(Cc2c(CN(C)C)c3ccc(OC(=O)N(C)C)cc3oc2=O)c1Cl

1: 36.5; 2: 17.1
